test: binders of probe aFGF2 on microarray, primary screen, stem cell growth factor project, biochemical, small-molecule microarray, fluorescence 635/667 (AID 1067); details: higher = more signal;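 further: measures binding of biotinylated aFGF2 protein to printed compounds on slides; z-score merges feature fluorescence and signal-to-noise across triplicate slides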
MEASURE NAME: composite z-score

[[record]]
molecule = "CO[C@@H]1COC(=O)CC=C[C@@H](C)[C@H](OC)COC(=O)[C@H](COCc2ccccc2)NC(=O)CC=C[C@H]1C"
measure_name = "composite z-score"
experimental_value = -0.0775

[[record]]
molecule = "CC(C)[C@@H](OCc1ccccc1)[C@H](C)C=NOC[C@@H](C)[C@H](OCc1ccccc1)C(C)C"
measure_name = "composite z-score"
experimental_value = -0.164

[[record]]
molecule = "CCN1C(=O)[C@H]2[C@H]3[C@H](O)[C@H](O)CC(=NO[C@@H]4O[C@H](CO)[C@@H](O)[C@H](O)[C@H]4O)[C@@H]3CC[C@H]2C1=O"
measure_name = "composite z-score"
experimental_value = -0.211

[[record]]
molecule = "CC(C)NC(=O)[C@@]1(C)c2ccccc2C(=O)N(Cc2cc(F)cc(C(F)(F)F)c2)[C@H]1c1ccc(CO)cc1"
measure_name = "composite z-score"
experimental_value = 0.0368

[[record]]
molecule = "O=C1C2=CC[C@H]3C(=O)N(Cc4ccc5c(c4)OCO5)C(=O)[C@H]3[C@H]2[C@H](O)[C@@H]2O[C@H]12"
measure_name = "composite z-score"
experimental_value = -0.141

[[record]]
molecule = "N#Cc1ccc(NN2C(C(O)c3cccc4ccccc34)C=CC3C(=O)N(c4ccccc4)C(=O)C32)cc1 (configuration not stated)"
measure_name = "composite z-score"
experimental_value = 0.158

[[record]]
molecule = "CO[C@H]([C@@H](C)[C@H](OC)c1ccccc1)[C@H](C)[C@@H](OC)[C@H](C)C(C)=O"
measure_name = "composite z-score"
experimental_value = -0.0785

[[record]]
molecule = "CCCCCCc1nc(CCCc2cc3c(c(CCCCCC)n2)[Si](C(C)C)(C(C)C)O[C@H]3c2ccccc2)cc2c1[Si](C(C)C)(C(C)C)O[C@H]2c1ccccc1"
measure_name = "composite z-score"
experimental_value = -0.109

[[record]]
molecule = "O=C1O[C@@H](c2ccccc2)[C@@H](c2ccccc2)N2[C@@H](c3ccc(OCCO)cc3)[C@]3(C(=O)Nc4ccccc43)[C@@H](C(=O)N3CCN(c4ncccn4)CC3)[C@H]12"
measure_name = "composite z-score"
experimental_value = -0.0493

[[record]]
molecule = "COC(=O)[C@@H]1CC[C@H](C)[C@@H](c2ccc(C)cc2)N1C(=O)c1ccc(C=NOC(C)CN2CCCCc3nc(C)c(C)cc32)cc1 (some centres not stated)"
measure_name = "composite z-score"
experimental_value = -0.0959

[[record]]
molecule = "CCOC(=O)NN=C1C[C@@H](O)[C@@H](O)[C@@H]2[C@@H]3C(=O)N(C4CCCCC4)C(=O)[C@@H]3CC[C@H]12"
measure_name = "composite z-score"
experimental_value = -0.067

[[record]]
molecule = "CC(=O)OC[C@H]1O[C@H](CCON=C[C@@H](C)[C@H](OCc2ccccc2)C(C)C)C=C[C@@H]1OC(C)=O"
measure_name = "composite z-score"
experimental_value = -0.101

[[record]]
molecule = "COC(=O)[C@H](C)NC(=O)CCC1CC(OC(=O)NCCc2ccc(F)cc2)CC2(CCCC(COC(=O)NCCc3ccc(Cl)cc3)O2)O1 (some centres not stated)"
measure_name = "composite z-score"
experimental_value = -0.0579

[[record]]
molecule = "O=C1[C@H]2[C@H]3[C@H](O)[C@H](O)CC(=NOCc4ccccc4)[C@H]3CC[C@H]2C(=O)N1C[C@@H]1CCCO1"
measure_name = "composite z-score"
experimental_value = -0.133

[[record]]
molecule = "CCOC(=O)[C@H](Cc1ccccc1)NC(=O)CCC1CC(OC(=O)NCc2ccc3c(c2)OCO3)CC2(CCCC(COC(=O)NCc3ccccc3)O2)O1 (some centres not stated)"
measure_name = "composite z-score"
experimental_value = -0.0103

[[record]]
molecule = "COc1ccc([Si](C)(C)[C@H]2[C@H](CCO)O[C@@]3(C(=O)N(Cc4cccc(NC(=O)[C@H](C)O)c4)c4ccccc43)[C@@H]2C)cc1"
measure_name = "composite z-score"
experimental_value = -0.101

[[record]]
molecule = "CCN(CC)c1ccc(N2CC=CC34O[C@@H]5/C=C\\CCC(C)OC(=O)C5[C@H]3C(=O)N(CCCO)[C@@H]4C2=O)cc1 (some centres not stated)"
measure_name = "composite z-score"
experimental_value = -0.0766

[[record]]
molecule = "COc1ccc(O[C@H]2C=C[C@@H](c3ccccc3)O[C@@H]2COC(=O)N2CCCCC2)cc1"
measure_name = "composite z-score"
experimental_value = -0.0493

[[record]]
molecule = "O=C1[C@H]2[C@H]3[C@H](O)[C@H](O)CC(=NOCc4ccccc4)[C@H]3CC[C@H]2C(=O)N1c1ccc(F)cc1F"
measure_name = "composite z-score"
experimental_value = -0.0561

[[record]]
molecule = "CC(C)CON=C1C[C@@H](O)[C@@H](O)[C@@H]2[C@@H]3C(=O)N([C@@H](C)c4ccccc4)C(=O)[C@@H]3CC[C@H]12"
measure_name = "composite z-score"
experimental_value = -0.0156

[[record]]
molecule = "CC(C)=CCCC(C)=CCON=C1C[C@@H](O)[C@@H](O)[C@@H]2[C@@H]3C(=O)N(C[C@@H]4CCCO4)C(=O)[C@@H]3CC[C@@H]12"
measure_name = "composite z-score"
experimental_value = -0.134

[[record]]
molecule = "CCOC(=O)C[C@H]1[C@H](OC(=O)c2ccc(C(=O)c3ccccc3)cc2)[C@@H](NC(=O)c2ccc(-c3ccccc3)cc2)c2cc(OCCCO)ccc2N1C(=O)c1ccc2ccccc2n1"
measure_name = "composite z-score"
experimental_value = -0.0685

[[record]]
molecule = "c1ccc(C2NCCc3c2[nH]c2ccccc32)cc1 (configuration not stated)"
measure_name = "composite z-score"
experimental_value = 0.0183

[[record]]
molecule = "CCN1C(=O)[C@H]2[C@H]3[C@H](O)[C@H](O)CC(=NOC(C)CN4CCCCc5nc(C)c(C)cc54)[C@@H]3CC[C@H]2C1=O (some centres not stated)"
measure_name = "composite z-score"
experimental_value = -0.138

[[record]]
molecule = "CC[C@@H](c1ccccc1)n1c(=O)n2n(c1=O)[C@H]1[C@H](O)[C@@H]3O[C@@H]3C(=NOCC(C)C)[C@H]1CC2"
measure_name = "composite z-score"
experimental_value = -0.119

[[record]]
molecule = "CC(C)(C)N1C(=O)[C@H]2[C@H]3[C@H](O)[C@H](O)CC(=NO[C@@H]4O[C@H](CO)[C@@H](O)[C@H](O)[C@H]4O)[C@@H]3CC[C@H]2C1=O"
measure_name = "composite z-score"
experimental_value = -0.0854

[[record]]
molecule = "CO[C@H]1O[C@H](CO)[C@@H](OC(=O)Nc2ccc3c(c2)OCO3)[C@H](OC(=O)Nc2ccccc2-c2ccccc2)[C@@H]1OC(=O)Nc1ccccc1-c1ccccc1"
measure_name = "composite z-score"
experimental_value = -0.0238

